- Tested on: beet armyworm (BAW; Spodoptera exigua: Lepidoptera)
- method: Insecticidal test for beet armyworm, 128-well diet tray assay
- Type: in vivo
readout: % Mortality BAW 50 μg/cm^2

{"molecule": "O=C(Nc1ccc(-c2ncn(-c3ccc(OC(F)(F)F)cc3)n2)cc1)Oc1ccccc1C(F)(F)F [Compound 124]", "% Mortality BAW 50 μg/cm^2": "A (50-100)"}
{"molecule": "COC(=S)Nc1ccc(-c2ncn(-c3ccc(OC(F)(F)F)cc3)n2)cc1 [Compound 132]", "% Mortality BAW 50 μg/cm^2": "A (50-100)"}
{"molecule": "CC(C)(C)OC(=O)Nc1ccc(-c2ncn(-c3ccc(OC(F)(F)F)cc3)n2)cc1 [Compound 25]", "% Mortality BAW 50 μg/cm^2": "A (50-100)"}
{"molecule": "O=C(Nc1ccc(-c2ncn(-c3ccc(OC(F)(F)F)cc3)n2)cc1)OC1CCc2ccccc2O1 (centres unmarked) [Compound 95]", "% Mortality BAW 50 μg/cm^2": "A (50-100)"}
{"molecule": "O=C(Nc1ccc(-c2ncn(-c3ccc(OC(F)(F)F)cc3)n2)cc1)OC1CCc2ccccc21 (centres unmarked) [Compound 109]", "% Mortality BAW 50 μg/cm^2": "B (Less than 50)"}
{"molecule": "CC(OC(=O)Nc1ccc(-c2ncn(-c3ccc(OC(F)(F)F)cc3)n2)cc1)C1CCCCC1 (centres unmarked) [Compound 16]", "% Mortality BAW 50 μg/cm^2": "B (Less than 50)"}

Hi there! I need % Mortality BAW 50 μg/cm^2 for each item below, if you can.
1. CC1(OC(=O)Nc2ccc(-c3ncn(-c4ccc(OC(F)(F)F)cc4)n3)cc2)Cc2ccccc2C1 [Compound 108]
2. COc1ccc(CC(C)(C)OC(=O)Nc2ccc(-c3ncn(-c4ccc(OC(F)(F)F)cc4)n3)cc2)cc1 [Compound 100]
3. O=C(Nc1ccc(-c2ncn(-c3ccc(OC(F)(F)F)cc3)n2)cc1)OCc1c(Cl)cccc1Cl [Compound 111]
4. COc1ccc(C(C)OC(=O)Nc2ccc(-c3ncn(-c4ccc(OC(F)(F)F)cc4)n3)cc2)cn1 (centres unmarked) [Compound 55]

Given back:
1. B (Less than 50)
2. B (Less than 50)
3. B (Less than 50)
4. A (50-100)

Asked: Form field: reported % Mortality BAW 50 μg/cm^2 of CC(OC(=O)Nc1ccc(-c2ncn(-c3ccc(OC(F)(F)F)cc3)n2)cc1)c1ccc(C#N)cc1 (centres unmarked) [Compound 45]
Given back: A (50-100)

---

- Test system: beet armyworm (BAW; Spodoptera exigua: Lepidoptera)
- method: Insecticidal test for beet armyworm, 128-well diet tray assay
- Format: in vivo
readout: % Mortality BAW 50 μg/cm^2

Use these answered entries as a reference point.
{"compound": "O=C(Nc1ccc(-c2ncn(-c3ccc(OC(F)(F)F)cc3)n2)cc1)Oc1cccc(-c2ccccc2)c1", "assay target": "beet armyworm (BAW; Spodoptera exigua: Lepidoptera)", "% Mortality BAW 50 μg/cm^2": "A (50-100)"}
{"compound": "C#CC(OC(=O)Nc1ccc(-c2ncn(-c3ccc(C(F)(F)F)cc3)n2)cc1)c1ccc(C(F)(F)F)cc1 (stereo not drawn)", "assay target": "beet armyworm (BAW; Spodoptera exigua: Lepidoptera)", "% Mortality BAW 50 μg/cm^2": "A (50-100)"}
{"compound": "Cc1ccc2c(c1)CC(C)C(OC(=O)Nc1ccc(-c3ncn(-c4ccc(OC(F)(F)F)cc4)n3)cc1)O2 (stereo not drawn)", "assay target": "beet armyworm (BAW; Spodoptera exigua: Lepidoptera)", "% Mortality BAW 50 μg/cm^2": "A (50-100)"}
{"compound": "CC(OC(=O)Nc1ccc(-c2ncn(-c3ccc(OC(F)(F)F)cc3)n2)cc1)c1ccc(Cl)cn1 (stereo not drawn)", "assay target": "beet armyworm (BAW; Spodoptera exigua: Lepidoptera)", "% Mortality BAW 50 μg/cm^2": "A (50-100)"}
{"compound": "CC(OC(=O)Nc1ccc(-c2ncn(-c3ccc(C(F)(F)F)cc3)n2)cc1)c1ccc(C(F)(F)F)nc1 (stereo not drawn)", "assay target": "beet armyworm (BAW; Spodoptera exigua: Lepidoptera)", "% Mortality BAW 50 μg/cm^2": "A (50-100)"}

Go through the list and state % Mortality BAW 50 μg/cm^2 for each entry.
1. CC(OC(=O)Nc1ccc(-c2ncn(-c3ccc(OC(F)(F)F)cc3)n2)cc1)c1cnc(C(F)(F)F)nc1 (stereo not drawn)
2. C#CC(OC(=O)Nc1ccc(-c2ncn(-c3ccc(C(F)(F)F)cc3)n2)cc1)c1ccccc1 (stereo not drawn)

Given back:
["A (50-100)", "A (50-100)"]

Consider the following items and state reported % Mortality BAW 50 μg/cm^2 for each.
1. CC(OC(=O)Nc1ccc(-c2ncn(-c3ccc(OC(F)(F)C(F)(F)F)cc3)n2)cc1)c1ccc(C(F)(F)F)nc1 (stereo not drawn)
2. Cc1ccccc1C(C)OC(=O)Nc1ccc(-c2ncn(-c3ccc(OC(F)(F)F)cc3)n2)cc1 (stereo not drawn)
3. CCOC(=O)C#CC(C)(C)OC(=O)Nc1ccc(-c2ncn(-c3ccc(OC(F)(F)F)cc3)n2)cc1
4. C#CC(OC(=O)Nc1ccc(-c2ncn(-c3ccc(OC(F)(F)F)cc3)n2)cc1)c1ccc(Cl)nc1 (stereo not drawn)
5. O=C(Nc1ccc(-c2ncn(-c3ccc(OC(F)(F)F)cc3)n2)cc1)OC(c1ccccc1)c1ccccc1
6. CC(OC(=O)Nc1ccc(-c2ncn(-c3ccc(OC(F)(F)F)cc3)n2)cc1)c1ccc(-c2ccccc2)cc1 (stereo not drawn)

Given back:
1: A (50-100); 2: A (50-100); 3: B (Less than 50); 4: A (50-100); 5: A (50-100); 6: B (Less than 50)

# batch size: 5; output % Mortality BAW 50 μg/cm^2 per entry
1. CCCC(C)(C)OC(=O)Nc1ccc(-c2ncn(-c3ccc(OC(F)(F)F)cc3)n2)cc1
2. CC(C)(OC(=O)Nc1ccc(-c2ncn(-c3ccc(OC(F)(F)F)cc3)n2)cc1)c1ccc(C(F)(F)F)cc1
3. CCOC(=O)Nc1ccc(-c2ncn(-c3ccc(OC(F)(F)F)cc3)n2)cc1
4. CN(C(=O)Oc1ccc([N+](=O)[O-])cc1)c1ccc(-c2ncn(-c3ccc(OC(F)(F)F)cc3)n2)cc1
5. C#Cc1ccc(C(C)OC(=O)Nc2ccc(-c3ncn(-c4ccc(OC(F)(F)F)cc4)n3)cc2)cc1 (stereo not drawn)

Given back:
["A (50-100)", "A (50-100)", "A (50-100)", "B (Less than 50)", "A (50-100)"]

Provide reported % Mortality BAW 50 μg/cm^2 for each item, in the same order as listed.
1. CCC(OC(=O)Nc1ccc(-c2ncn(-c3ccc(OC(F)(F)F)cc3)n2)cc1)c1ccc(F)cc1 (stereo not drawn)
2. Cc1ccc(C(C)OC(=O)Nc2ccc(-c3ncn(-c4ccc(OC(F)(F)F)cc4)n3)cc2)cc1 (stereo not drawn)
3. CC(OC(=O)Nc1ccc(-c2ncn(-c3ccc(OC(F)(F)F)cc3)n2)cc1)c1ccc(C(F)(F)F)cc1C(F)(F)F (stereo not drawn)
4. CCOC(=O)c1csc(C(=O)C(C)(C)OC(=O)Nc2ccc(-c3ncn(-c4ccc(OC(F)(F)F)cc4)n3)cc2)n1
5. CC(C)CC(OC(=O)Nc1ccc(-c2ncn(-c3ccc(OC(F)(F)F)cc3)n2)cc1)c1ccccc1 (stereo not drawn)
6. CC(OC(=O)Nc1ccc(-c2ncn(-c3ccc(OC(F)(F)F)cc3)n2)cc1)c1cccs1 (stereo not drawn)

Given back:
1. A (50-100)
2. A (50-100)
3. B (Less than 50)
4. B (Less than 50)
5. A (50-100)
6. A (50-100)
